# Test system: 786-0 renal
# protocol.notes: NCI-60 one-dose screen, 48 h
# conditions.used: 10 µM unless noted
This is part of a sample that, as a whole, favours compounds with a hit. Of some 83,000 tested, about 20% had one in any assay. Activity calls are given as the source filed them. The calls were made as follows: active = growth percent below 10; inactive = the rest.
# output must be one of 1 (active), -1 (inactive)

How was O=C1C(Cl)=C(Nc2ccccc2)C(=O)C(Cl)=C1Nc1ccccc1 classified in this test?
-1

# lookup: test call for CC(CN(C)C)CN1c2ccccc2CCc2ccccc21 (stereo not given)
-1

Returns: the outcome recorded for CC(=O)c1cc2c(c(O)c1C)C(=O)C(=O)c1c(O)cccc1-2 in this assay.
1

Assay outcome for CS(=O)(=O)OCC(COS(C)(=O)=O)C(c1ccccc1)c1ccccc1 : what was it?
-1

Query: recorded result category for NC(=O)C1=C[C@H]2[C@H]3C=C[C@@]2(O)C(=O)O[C@@H]3O1 in this test
-1

Outcome? Cc1cn([C@]2(CF)O[C@H](CO)C2C)c(=O)[nH]c1=O (stereo not given in full)
-1

Given CN(CCNCc1ccccn1)CCNCc1ccccn1 , state the outcome it received in this test.
1

// param item: O=C(Nc1cccc(-n2ccc3c(NC(=O)c4ccccc4)ncnc32)c1)Nc1ccc(Cl)c(C(F)(F)F)c1 ; yields the recorded call
-1

# fetch the recorded call for O=C(COc1ccc(Cl)cc1)N1CCN(Cc2ccc3c(c2)OCO3)CC1 here
-1

// outcome(item) with item = COc1ccc(C(=O)NC(=O)Nc2ccc3c(c2)NC(=O)/C3=C\c2[nH]c(C)c(CCC(=O)O)c2C)c(F)c1
-1

The values you see were collected from PubChem BioAssay (NCI).
